What % change in live cells was measured for each of the following?
Tested on: primary dermal fibroblasts
TEST_SUMMARY: % change in live cells vs DMSO control; higher = less cytotoxic
TEST_CONTEXT: 0.246914 µM; donor: 4; time (h post treatment): 48
Number first, unit second: that is the form wanted.

Working through the 6 molecules below one at a time, give % change in live cells for each.
1. O=C(Nc1ccc([N+](=O)[O-])cc1Cl)c1cc(Cl)ccc1O [Niclosamide]
2. Cc1nc(N(C)C(=O)Cc2ccc(-c3ccccn3)cc2)sc1S(N)(=O)=O
3. CC(=O)O[C@H]1C[C@H](O[C@H]2[C@@H](O)C[C@H](O[C@H]3[C@@H](O)C[C@H](O[C@H]4CC[C@@]5(C)[C@H](CC[C@@H]6[C@@H]5C[C@@H](O)[C@]5(C)[C@@H](C7=CC(=O)OC7)CC[C@]65O)C4)O[C@@H]3C)O[C@@H]2C)O[C@H](C)[C@H]1O[C@@H]1O[C@H](CO)[C@@H](O)[C@H](O)[C@H]1O [Lanatoside C]
4. COc1ccc(-c2nc(N3CCOCC3)c3sc(CN(C)c4ncc(C(=O)NO)cn4)cc3n2)cn1 [Fimepinostat]
5. Nc1ccn([C@@H]2O[C@H](CO)[C@@H](O)C2(F)F)c(=O)n1
6. CC(C)c1cnn2c(NCc3ccccc3-n3cccn3)nc(OC3CCCNC3)nc12 (stereo not given)

["2.67%", "-1%", "-20%", "-33.3%", "-9.33%", "-6.33%"]

For every item below, please supply its % change in live cells.
1. Cc1cccc(C)c1N(CC(=O)Nc1ccc(-c2ncon2)cc1)C(=O)C1CCS(=O)(=O)CC1
2. O=C(/C=C\n1cnc(-c2cc(C(F)(F)F)cc(C(F)(F)F)c2)n1)NNc1ccccn1 [Verdinexor]
3. CC1(C)CC(=O)c2c(C(F)(F)F)nn(-c3ccc(C(N)=O)c(N[C@H]4CC[C@H](O)CC4)c3)c2C1
4. C=CC(=O)N1CC/C(=C\c2ccc(F)c([N+](=O)[O-])c2)C(=O)/C(=C/c2ccc(F)c([N+](=O)[O-])c2)C1

1: 4.67%; 2: -9.67%; 3: 4.67%; 4: 0%

----------
Tested on: HSV-1 K26-GFP infected 3D skin equivalent
TEST_SUMMARY: % activity on HSV-1 GFP signal (0 = infected DMSO control, -100 = uninfected control); higher = higher signal (negative = inhibition / toxicity)
TEST_CONTEXT: 1.111111 µM; time (h post infection): 48; model: submerged
Record form. Attribute: % activity on HSV-1 GFP signal. Fill in for each entry.
Answers are plain numbers, in %.

Some entries whose results are on file:
Value lookup for % activity on HSV-1 GFP signal; key = CC(C)c1cnn2c(NCc3ccccc3-n3cccn3)nc(OC3CCCNC3)nc12 (centres undefined) [LDC4297]
-54.4

Now give it for Nc1ccn([C@@H]2O[C@H](CO)[C@@H](O)C2(F)F)c(=O)n1 [Gemcitabine] too.
-97

Now consider COc1ccc(-c2nc(N3CCOCC3)c3sc(CN(C)c4ncc(C(=O)NO)cn4)cc3n2)cn1 [Fimepinostat] and answer again.
-31.5

Continuing:
Can you look up the measured % activity on HSV-1 GFP signal of Cc1cccc(C)c1N(CC(=O)Nc1ccc(-c2ncon2)cc1)C(=O)C1CCS(=O)(=O)CC1 [Amenamevir] for me?
-84.6
